Tested on: Escherichia coli
PROTOCOL DESCRIPTION: in vitro antibacterial evaluation, MIC by broth dilution
Type: cell-based
MEASUREMENT SETUP: 18 hours at 35° C.
OUTCOME MEASURE: MIC Escherichia coli (GC 4559)

COMPOUND	MEASURED TARGET	MIC Escherichia coli (GC 4559)
CC(c1ccccc1)C1NC(=O)CNC(=O)C(CO)NC(=O)C(C(O)C2CN(c3nc4ccccc4s3)C(=N)N2C2OC(CO)C(O)C(O)C2O)NC(=O)C(C(O)C2CNC(=Nc3nc4ccccc4s3)N2)NC(=O)C(Cc2ccc(OC3OC(CO)C(OC4OC(CO)C(O)C(O)C4O)C(O)C3O)cc2)NC1=O (stereo not drawn) [Example 94]	Escherichia coli	>64 mg/L
N=C1NCC(C(O)C2NC(=O)C(CC3CCC(OC4OC(CO)C(OC5OC6COC7(OC6C(O)C5O)C5CC6CC(C5)CC7C6)C(O)C4O)CC3)NC(=O)C(CC3CCCCC3)NC(=O)CNC(=O)C(CO)NC(=O)C(C(O)C3CNC(=N)N3C3OC(CO)C(O)C(O)C3O)NC2=O)N1 (single isomer, unassigned) [Example 223]	Escherichia coli	>64 mg/L

Shift focus to the following entry.
q: Dear colleague, I am looking for the recorded MIC Escherichia coli (GC 4559) of the following compound: CCCC(C)C1OCC2OC(OC3C(CO)OC(Oc4ccc(CC5NC(=O)C(C(C)c6ccc(Cl)cc6)NC(=O)CNC(=O)C(CO)NC(=O)C(C(O)C6CNC(=N)N6C6OC(CO)C(O)C(O)C6O)NC(=O)C(C(O)C6CNC(=N)N6)NC5=O)cc4)C(O)C3O)C(O)C(O)C2O1 (stereo not drawn) [Example 194]
a: 32 mg/L
